system: HepG2; experiment: Cell cytotoxicity assay, HEPG2; assay type: cell-based; conditions: HepG2 cells, 5 days at 37° C., XTT dye
In this scheme, each record receives a class according to its CC50; the ranges are low group (below 20 nM), middle group (20 nM to below 100 nM), high group (100 nM or more)

Nc1ccn([C@@H]2CO[C@H](COP(=O)(N[C@@H](Cc3ccccc3)C(=O)OC3CCCCC3)Oc3ccc(Br)cc3)O2)c(=O)n1 (single isomer, unassigned; dia-1) [7 dia-1] = high group

Task: Categorize the following entry: CC(C)OC(=O)[C@H](C)NP(=O)(OC[C@H]1OC[C@@H](n2ccc(N)nc2=O)O1)Oc1cccc2ccccc12 (single isomer, unassigned; dia-2) [5 dia-2]
Output: high group

Task: Please report the category associated with C[C@H](NP(=O)(OC[C@H]1OC[C@@H](n2ccc(N)nc2=O)O1)Oc1ccccc1)C(=O)OCc1ccccc1 (single isomer, unassigned; dia-2) [19 dia-2] , nothing else.
Output: low group

Task: Class? Entry: CCC(CC)COC(=O)[C@H](C)NP(=O)(OC[C@H]1OC[C@@H](n2ccc(N)nc2=O)O1)Oc1ccccc1 (single isomer, unassigned; dia-2) [15 dia-2]
Output: low group

Task: Quick check: band for C[C@H](NP(=O)(OC[C@H]1OC[C@@H](n2ccc(N)nc2=O)O1)Oc1cccc2ccccc12)C(=O)OCc1ccccc1 (single isomer, unassigned; dia-2) [9 dia-2]
Output: low group

Task: Tag the class for CC[C@@H](C)OC(=O)[C@H](C)NP(=O)(OC[C@H]1OC[C@@H](n2ccc(N)nc2=O)O1)Oc1ccc([Si](C)(C)C)cc1 (single isomer, unassigned; dia-2) [11 dia-2]
Output: middle group

Task: For COC(=O)[C@H](C)NP(=O)(OC[C@H]1OC[C@@H](n2ccc(N)nc2=O)O1)Oc1ccccc1 (single isomer, unassigned; dia-2) [26 dia-2] , which CC50 bin applies?
Output: high group

Task: Which band does Nc1ccn([C@@H]2CO[C@H](COP(=O)(N[C@@H](Cc3ccccc3)C(=O)OC3CCCCC3)Oc3ccc(Br)cc3)O2)c(=O)n1 (single isomer, unassigned; dia-2) [7 dia-2] fall in?
Output: middle group

---

experiment: Stability in human intestinal S9 fraction (HIS9); format: in vitro ADME; settings: human intestinal S9 0.4 mg protein/mL, 5 μM test compound, 37° C.
Each entry below carries its recorded CLint Intestinal S9.
API: value field is a number in µL/min/mg; no unit string.

Below, each entry is followed by its recorded CLint Intestinal S9 result.
CC(C)OC(=O)[C@H](C)NP(=O)(OC[C@H]1OC[C@@H](n2ccc(N)nc2=O)O1)Oc1cccc2ccccc12 (single isomer, unassigned; dia-2) [5 dia-2] = 13
COC(=O)[C@H](C)NP(=O)(OC[C@H]1OC[C@@H](n2ccc(N)nc2=O)O1)Oc1ccc(C2CC2)cc1 (single isomer, unassigned) [34 dia-2] = 6
CCC(CC)OC(=O)[C@H](C)NP(=O)(OC[C@H]1OC[C@@H](n2ccc(N)nc2=O)O1)Oc1ccccc1 (single isomer, unassigned; dia-1) [21 dia-1] = 29

Please turn your attention to the following entry.
Lookup result for Nc1ccn([C@@H]2CO[C@H](COP(=O)(N[C@@H](Cc3ccccc3)C(=O)OC3CCCCC3)Oc3ccc(Br)cc3)O2)c(=O)n1 (single isomer, unassigned; dia-2) [7 dia-2] ; measured CLint Intestinal S9: 27

Every entry's value here was drawn from patent US11447511B2.
